- Tested on: XF498
- Test Name: NCI tumour cell line growth inhibition, 48 h
Calls of active or inactive are those of the source. Cut-off read from the data, not from the text of the source: active = GI50 up to about 1.1 µM and inactive = higher.
Quantity: GI50

Suppose we examine the compound COc1ccc(OCC(=O)O)c2c1CCCC2=O ; what GI50 value has been reported?
3.52 µM (inactive)

I am curious: what GI50 value has been reported for O=C1C=CC2(O)OCC3C=C4O[C@@H]5OC6(CCCCC6)O[C@@H]5C4[C@@H]2[C@@H]13 (some centres not stated) ?
27.2 µM (inactive)

Fill in the blank: the reported GI50 of O=C(NC12CC3CCC1CC(C3)C2)[C@@H]1CCCN1C(=O)OCc1ccccc1 (some centres not stated) is ____.
19.2 µM (inactive)

Which GI50 reading was recorded for the compound CC(C)OP(=S)(NC(=S)c1ccccc1)OC(C)C ?
> 100 µM (inactive)

Any idea what its GI50 is? The compound is O=C(Nc1ccc(Cl)cc1)c1cc2cc(/N=N/c3ccccc3Cl)ccc2oc1=O
24.4 µM (inactive)

# GI50 lookup, item CC(=O)OC1CCn2nnc(CO[Si](C)(C)C(C)(C)C)c21 (configuration not stated)
> 100 µM (inactive)

Given O=C(CC1=Nc2nnc(CCCCCCCc3nnc4n3C(=O)C(CC(=O)c3ccccc3)=N4)n2C1=O)c1ccccc1 , state its recorded GI50.
> 100 µM (inactive)

----------
Could you please report measured GI50 for the items listed next?
- Tested on: OVCAR-3
- Test Name: NCI tumour cell line growth inhibition, 48 h
Activity calls are given as the source filed them. No stated cut-off is given here; in the data, active = GI50 up to about 1.1 µM and inactive = higher.

Bench note: what GI50 did CC1(C)N=C(/C(Cl)=[N+](/[O-])C(=O)c2ccc(Cl)cc2)C(C)(C)N1O show?
17.5 µM (inactive)

Any idea what GI50 was measured for COc1cc(Nc2cnc3ccc(C(F)(F)F)cc3n2)cc(OC)c1OC ?
> 100 µM (inactive)

I have this compound here, O=C1Nc2ccc(Br)cc2/C1=N/Nc1ccccc1[N+](=O)[O-] , and I need its recorded GI50.
10.7 µM (inactive)

Which value of GI50 has been reported for O=C(O)c1ccc(C(=O)c2ccccc2C(=O)O)cc1C(=O)O in the records?
> 100 µM (inactive)

For COc1cc(Oc2nc3ccccc3nc2C(=O)O)cc(OC)c1OC , what is its reported GI50?
> 100 µM (inactive)

Bench note: what GI50 did COc1cc2c(cc1OC)C(C(=O)c1cccc(OC)c1OC)C(=O)N(C)CC2 (centres undefined) show?
> 100 µM (inactive)

Fill in the blank: the reported GI50 of Oc1cccc(-c2cn3cc(C(F)(F)F)ccc3n2)c1 is ____.
19.5 µM (inactive)

Can you look up the measured GI50 of O=CC12C3CCC1C2C(=O)C3 (centres undefined) for me?
> 100 µM (inactive)

GI50 lookup needed for C=CCCC(On1c(-c2ccc(Cl)cc2)csc1=S)c1ccccc1 (centres undefined) , thanks.
23 µM (inactive)

I have this compound here, COC1/C(=C\C(=O)OC(C)(C)C)c2ccccc2N1C(C)=O (centres undefined) , and I need its recorded GI50.
> 100 µM (inactive)

Requested field: GI50. Item: COc1ccc(/C=c2/sc3n(c2=O)NC(c2ccc(Cl)cc2)NN=3)cc1 (centres undefined)
> 100 µM (inactive)

Param item = CCCCOc1ccc(S(=O)(=O)N/C(=N\O)Nc2ccc(Cl)cc2)cc1 ; retrieve measured GI50.
14.9 µM (inactive)

What does the data say about its GI50? Entry: Cc1ccc(S(=O)(=O)N(CC(O)COc2ccccc2)c2c(F)cccc2F)cc1 (centres undefined)
11.6 µM (inactive)

# input compound: CSc1nc(NC2OC(COC(C)=O)C(OC(C)=O)C(OC(C)=O)C2OC(C)=O)c(-c2csc(N)n2)c(=O)n1C (centres undefined) ; wanted: its GI50
54 µM (inactive)

I am curious: what GI50 value has been reported for CCOC(=O)C1=CN(Cc2ccccc2)C2ON=C(c3ccc(Cl)cc3)C2C1 (centres undefined) ?
39.3 µM (inactive)

Name the reported GI50 value associated with the compound CCOC(=O)c1nc2cc(C(F)(F)F)ccc2nc1Nc1ccc(C(=O)NC(C(=O)OCC)C(=O)OCC)cc1
45.4 µM (inactive)

Could you tell me which GI50 is on file for CN(C)CCNc1nc2c(c(=O)n(C)c(=O)n2C)n1C ?
> 100 µM (inactive)

What does the data say about its GI50? Entry: CN(C)[C@@H]1C(O)=C(C(=O)NCNc2nc3[nH]nnc3c(=O)[nH]2)C(=O)[C@@]2(O)C(O)=C3C(=O)c4c(O)cccc4[C@@](C)(O)[C@H]3C[C@@H]12
25.9 µM (inactive)

What value of GI50 has been recorded for this entry: CNC(=O)OCC1=C(COC(=O)NC)CN(c2ccc(OC)cc2)C1
> 100 µM (inactive)

Dear colleague, I am looking for the recorded GI50 of the following compound: CC(=O)N1C(OCc2ccccc2)CCN1c1ccccc1 (centres undefined)
> 10 µM (inactive)

Any idea what its GI50 is? The compound is COc1ccc(OCC(=O)O)c2c1CCCC2=O
> 100 µM (inactive)

# lookup: GI50 of CCOC(=O)CCn1ncc(Cl)c(Cl)c1=O
3.57 µM (inactive)

What does the data say about its GI50? Entry: CC(=O)Nc1nc(NC(C)=O)c2nc(CO)[nH]c2n1
> 100 µM (inactive)

Please look up its GI50: COc1ccc(/C=C/C(=O)c2cc(OC)cc(OC)c2)cc1
4.02 µM (inactive)

Endpoint output: GI50 of O=C(NCCO)c1c(O)c2ccccc2[nH]c1=O . Value?
> 100 µM (inactive)

Consider the compound CCOC(=O)C=C1CCN(C(=O)c2ccccc2)CC1 and give its measured GI50.
> 100 µM (inactive)

What GI50 value was documented for this compound, CN(C)CCNC(=O)c1cccc2nc3c(C(=O)NCCN(C)C)cccc3nc12 ?
1.7 µM (inactive)

Returns the measured GI50 for the input compound. Input: Cc1cccc(C)c1Nc1nc(C)c(C(=O)CC(=O)C(=O)Nc2c(C(C)C)cccc2C(C)C)s1
72.6 µM (inactive)

Sample C=C=C(CC)C(C(=O)OC)N(CC)CC (centres undefined) — what was its GI50?
> 100 µM (inactive)

I am curious: what GI50 value has been reported for O=C(O)C1CCCCC1c1c2ccc(=O)c(O)c-2oc2c(O)c(O)ccc12 (centres undefined) ?
42.1 µM (inactive)

Would you mind telling me what GI50 value was observed for CCCCCCCCCCOCCOCCOCCOCCCCC(O)CCCCCCCC1=C[C@H](C)OC1=O (some centres undefined) ?
16.2 µM (inactive)

So what does the record say about GI50 for NC(=S)Nc1c(S(N)(=O)=O)cc(S(N)(=O)=O)c(Cl)c1Cl ?
> 100 µM (inactive)

GI50 lookup needed for CC(C)/C=C1\CCC(CN(C)C)C1=O (centres undefined) , thanks.
2.82 µM (inactive)

Fill blank: measured GI50 of the compound NC(=O)NC1C(C(=O)O)N(Cc2ccccc2)C(=O)N1Cc1ccccc1 (centres undefined) is ____.
> 100 µM (inactive)

Please give the measured GI50 for this compound: CC(=O)Oc1ccc2cc(-c3ccccc3OC(C)=O)c(=O)oc2c1
24.8 µM (inactive)

I'd like to know its GI50. The compound in question is COc1ccc(/N=C2\C(=N/c3ccc(OC)cc3)N(c3ccc(N(C)C)cc3)C(=S)N2c2ccc(OC)cc2)cc1
> 100 µM (inactive)

Any idea what its GI50 is? The compound is OC(CCNCc1ccccc1)c1ccc2ccccc2c1 (centres undefined)
13.3 µM (inactive)

Name the reported GI50 value associated with the compound Cc1n[nH]c(=O)n1Nc1ccccc1
> 100 µM (inactive)

Would you mind telling me what GI50 value was observed for COc1ccc(-c2nc(O)c3ccccc3n2)c(OC)c1 ?
> 100 µM (inactive)

Sample O=C(O)C(Cc1ccccc1)NCc1c(O)ccc2c(-c3ccccc3)cc(=O)oc12 (centres undefined) — what was its GI50?
> 100 µM (inactive)

Recorded GI50 for CCOC(=O)/C=C(/C(=O)OCC)n1cc(Cl)c(=O)n(CC(=O)OCC)c1=O , please?
5.98 µM (inactive)

Requested field: GI50. Item: CNN1C(=O)c2c(C)c(C)c(C#N)c(N)c2C1=O
> 100 µM (inactive)

Sample N#CC(C#N)=Cn1c(=S)[nH]c2ccc([N+](=O)[O-])cc21 — what was its GI50?
> 100 µM (inactive)

Which value of GI50 has been reported for O=C(NC12CC3CC(CC(C3)C1)C2)C(=O)c1c[nH]c2ccc(Br)cc12 in the records?
11.2 µM (inactive)
